B1: library; numbered along this chain (parent)
chain: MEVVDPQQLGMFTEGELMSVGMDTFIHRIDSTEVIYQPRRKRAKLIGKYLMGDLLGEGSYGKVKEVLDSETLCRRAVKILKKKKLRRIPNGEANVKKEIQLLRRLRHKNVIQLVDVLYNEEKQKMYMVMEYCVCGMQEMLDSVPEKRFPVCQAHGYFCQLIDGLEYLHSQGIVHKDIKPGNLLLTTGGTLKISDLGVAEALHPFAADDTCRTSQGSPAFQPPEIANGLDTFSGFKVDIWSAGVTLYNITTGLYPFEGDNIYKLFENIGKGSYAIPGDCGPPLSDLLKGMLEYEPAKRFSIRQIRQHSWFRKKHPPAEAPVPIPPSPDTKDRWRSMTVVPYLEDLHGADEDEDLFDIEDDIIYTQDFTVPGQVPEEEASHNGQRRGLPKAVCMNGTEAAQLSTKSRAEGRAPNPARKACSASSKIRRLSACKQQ

# Variants of: B1
# METHOD DESCRIPTION: STK11 functional score (HeLa growth suppression), rescaled enrichment; synonymous median = 1, nonsense median = 0 (normalised score)
# CONDITIONS: with HeLa; variant type: missense
Recorded STK11 functional score by entry
Reply with just the number.

Known results for variants:
VAR	VALUE OBSERVED
T185N	0.509
V133D	1.53
P339E	0.55
G180S	1.14
E265T	1.56

Form field STK11 functional score, entry D176L : -0.164

Form field STK11 functional score, entry S69Q : 0.0756

Form field STK11 functional score, entry A198S : 0.503

Form field STK11 functional score, entry Y131C : 0.51

Form field STK11 functional score, entry P319F : 1.47

Form field STK11 functional score, entry Q170S : 0.916

Form field STK11 functional score, entry P144W : 1.61

Form field STK11 functional score, entry P339M : 1.62

Form field STK11 functional score, entry K175R : 1.47

Form field STK11 functional score, entry D162W : 1.6

Form field STK11 functional score, entry K431C : 1.59

Form field STK11 functional score, entry I29G : 1.16

Form field STK11 functional score, entry P411K : 1.57

Form field STK11 functional score, entry K311L : 1.04

Form field STK11 functional score, entry R211G : 1.51

Form field STK11 functional score, entry P149M : 1.02

Form field STK11 functional score, entry T13F : 1.25
